Below, each entry is listed alongside its reported protein stability index.
B1: PRKX (parent)
chain: KLLVVDRTRRLGNMKNGANDVKHH

# Variants of: B1
# assay_details: protein stability index of a GFP-peptide fusion (GPS, HEK-293T) (PSI 1-6); higher = more stable;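 further: lentivirally expressed fusions sorted by FACS into six bins by GFP to DsRed ratio, PSI derived from sequencing read proportions per bin multiplied by bin number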
# conditions: c terminus: a fixed tail appended

{"variant_spec": "T8P", "protein stability index": 2.74}
{"variant_spec": "A18H", "protein stability index": 3.34}
{"variant_spec": "G12T", "protein stability index": 2.95}
{"variant_spec": "V21Q", "protein stability index": 3.36}
{"variant_spec": "K15H", "protein stability index": 3.27}
{"variant_spec": "N19K", "protein stability index": 3.6}
{"variant_spec": "L11A", "protein stability index": 3.23}
{"variant_spec": "R7I", "protein stability index": 2.13}
{"variant_spec": "G17C", "protein stability index": 2.63}
